All figures here come from PubChem BioAssay AID248.

Tested on: L1210 leukemia ip in BDF1 mice, survival T/C
Test: NCI In Vivo Anticancer Drug Screen. Data for tumor model L1210 Leukemia (intraperitoneal) in B6D2F1 (BDF1) mice
Conditions: endpoint: mean survival time; dose: 200.0 mg/kg/injection; schedule: Q01DX009 (ip); vehicle: Klucel (hydroxypropylcellulose) (HPC); higher = longer survival
Procedure: The antitumor activity of compounds was measured in mice bearing transplantable tumors. Survival or tumor size were measured and the results are expressed as the measurement made in the treated group (T) divided by the measurement made in the vehicle treated control group (C). The tumor model used in this assay is L1210 Leukemia (intraperitoneal) in B6D2F1 (BDF1) mice
Inconclusive results and toxic doses are left out.
READOUT: T/C

What is its T/C for L1210 leukemia ip in BDF1 mice, survival T/C? Entry: COc1ccc(C=O)cc1OC
102 % of control

Queued: COC(=O)CCCCCCCC(=O)OCC#CC#CCOC(=O)CCCCCCCC(=O)OC
90 % of control

Queued: CC(=O)N(C)c1ccc(NC(=O)C2CCCCC2C(=O)O)cc1 (stereo not drawn)
95 % of control
